Each entry below carries its reported Plant response rating, Field Bindweed.
# Tested on: field bindweed (Convolvulus arvensis)
# RUN_DESCRIPTION: Test E greenhouse herbicide test, pre- and postemergence
# Format: in vivo
# EXPERIMENTAL_CONTEXT: 62 g ai/ha, Preemergence; scale 0 to 100 (0 no effect, 100 complete control)
Just the number, please, no unit after it.

Below, each entry is followed by its recorded Plant response rating, Field Bindweed result.
CC(=O)Oc1c(C)nn(C)c(=O)c1-c1c(C)cc(C)c2ccccc12 [Compound 153] :: 100
CCC(=O)Oc1c(C)nn(C)c(=O)c1-c1c(C)sc2ccc(Cl)cc12 [Compound 109] :: 40
CCOC(=O)Oc1c(C)nn(C)c(=O)c1-c1c(C)sc2c(C)cc(C)cc12 [Compound 83] :: 5

Ask | # Plant response rating, Field Bindweed lookup, item CC(=O)Oc1c(C)nn(C)c(=O)c1-c1c(C)sc2ccc(C)cc12 [Compound 25]
Reply | 98

====

# Test system: oilseed rape (Brassica napus)
# RUN_DESCRIPTION: Test C greenhouse herbicide test, pre- and postemergence
# Type: in vivo
# EXPERIMENTAL_CONTEXT: Postemergence, 125 g ai/ha; scale 0 to 100, 0 is no effect, 100 is complete control
Label yes when Plant response rating, Oilseed Rape is strictly below 5; otherwise label no.

Look over these answered cases.
CC(=O)Oc1c(C)nn(C)c(=O)c1-c1ccc(F)c2ccccc12 :: yes
Cc1sc2ccc(Cl)cc2c1-c1c(OS(C)(=O)=O)c(Cl)nn(C)c1=O :: no
Cc1ccc(-c2c(O)c(Br)nn(C)c2=O)c2ccccc12 :: yes
Cc1nn(C)c(=O)c(-c2c(C)sc3ccc(Cl)cc23)c1O :: no
Cc1cc(C)c2sc(C)c(-c3c(OC(=O)OC(C)C)c(C)nn(C)c3=O)c2c1 :: no
CC(=O)Oc1c(C#N)nn(C)c(=O)c1-c1c(C)ccc2ccccc12 :: no
Cc1cc(C)c2sc(C)c(-c3c(OC(=O)OCCCl)c(C)nn(C)c3=O)c2c1 :: no
COc1nn(C)c(=O)c(-c2c(C)ccc3ccccc23)c1O :: no

Ask | Consider `CC(=O)Oc1c(C)nn(C)c(=O)c1-c1c(C)oc2ccc(C)cc12` . Does its Plant response rating, Oilseed Rape lie strictly below 5?
Reply | yes

Ask | Find out if reported Plant response rating, Oilseed Rape for `CCC(=O)Oc1c(C)nn(C)c(=O)c1-c1c(C)sc2ccc(Cl)cc12` is less than 5
Reply | no

====

Reported Plant response rating, Foxtail, Giant values are given for each entry in this list.
# Tested on: foxtail, giant (giant foxtail, Setaria faberii)
# RUN_DESCRIPTION: Test C greenhouse herbicide test, pre- and postemergence
# Format: in vivo
# EXPERIMENTAL_CONTEXT: Preemergence, 125 g ai/ha; scale 0 to 100, 0 is no effect, 100 is complete control
The answer should be a number; do not append a unit.

Here are 3 compounds together with their reported answers.
C#CCOC(=O)Oc1c(C)nn(C)c(=O)c1-c1c(C)sc2ccc(C)cc12 :: 90
CC(=O)Oc1c(C)nn(C)c(=O)c1-c1c(C)sc2ccc(C)cc12 :: 90
CCC(=O)Oc1c(C)nn(C)c(=O)c1-c1c(C)sc2ccc(Cl)cc12 :: 85

Ask | What does the record list as Plant response rating, Foxtail, Giant for `Cc1ccc2ccccc2c1-c1c(O)c(C)nn(C)c1=O` ?
Reply | 98

Ask | Quick check: Plant response rating, Foxtail, Giant of `CCOC(=O)Oc1c(C)nn(C)c(=O)c1-c1c(C)sc2ccc(C)cc12` ?
Reply | 90

Ask | // Plant response rating, Foxtail, Giant lookup, key: `COc1nn(C)c(=O)c(-c2c(C)ccc3ccccc23)c1OC(=O)OC(C)C`
Reply | 85

Ask | Entry under review: `Cc1ccc2ccccc2c1-c1c(O)c(Cl)nn(C)c1=O` . Reported Plant response rating, Foxtail, Giant?
Reply | 98
